Values compiled from ChEMBL document CHEMBL2010644.

Test system: Peritoneal macrophage cell
Experiment: Antiinflammatory activity in ICR mouse primary peritoneal macrophages assessed as downregulation of high glucose-induced IL1beta mRNA expression at 10 uM incubated for 2 hrs prior to high glucose-challenge measured after 3 hrs by RT-qPCR analysis
Type: functional, cell-based
Calls of active or inactive are those of the source. The calls are words filed in the database; no cut-off is given here.
Outcomes you can answer with include only these: YES for active, NO for inactive

smiles: COc1ccc(C(=O)/C=C/c2c(F)cccc2F)cc1
label_class: YES

smiles: COc1ccc(C(=O)/C=C/c2ccc(O)c(OC)c2)cc1
label_class: YES

smiles: COc1cc(C(=O)/C=C/c2ccc(N(C)C)cc2)cc(OC)c1OC
label_class: YES

smiles: COc1ccc(C(=O)/C=C/c2ccccc2Cl)cc1
label_class: YES

Shifting focus to the compound that follows.
Returns: the outcome recorded for `COc1ccc(/C=C/C(=O)c2ccc(OC)c(OC)c2)c(OC)c1` in this assay.
NO

----------
Tested on: RAW264.7
Assay: Antiinflammatory activity in mouse RAW264.7 cells assessed as inhibition of LPS-induced TNFalpha production incubated for 2 hrs prior to LPS-challenge measured after 22 hrs by ELISA
Type: functional, cell-based
readout_kind: IC50 (µM)
Dear colleague, please return just the value in µM, with no unit written.

Recorded IC50 for `COc1ccc(C(=O)/C=C/c2ccccc2Cl)cc1` with RAW264.7, please?
7.32

Proceed to `COc1ccc(C(=O)/C=C/c2c(F)cccc2F)cc1`
8.42

Then this compound: `COc1cc(C(=O)/C=C/c2ccc(N(C)C)cc2)cc(OC)c1OC`
2.9

What about `COc1ccc(/C=C/C(=O)c2ccc(OC)c(OC)c2)c(OC)c1` ?
2.76

----------
Test system: Peritoneal macrophage cell
Assay: Antiinflammatory activity in ICR mouse primary peritoneal macrophages assessed as downregulation of LPS-induced COX-2 mRNA expression at 10 uM incubated for 2 hrs prior to LPS-challenge measured after 6 hrs by RT-qPCR analysis
Type: functional, cell-based
Active and inactive are the calls of the source. The calls are words filed in the database; no cut-off is given here.
Bench note: report the call from active, inactive

smiles: COc1ccc(C(=O)/C=C/c2c(F)cccc2F)cc1
label_class: inactive

smiles: COc1cc(C(=O)/C=C/c2ccc(N(C)C)cc2)cc(OC)c1OC
label_class: inactive

smiles: COc1ccc(/C=C/C(=O)c2ccc(OC)c(OC)c2)c(OC)c1
label_class: active

smiles: COc1ccc(C(=O)/C=C/c2ccccc2Cl)cc1
label_class: active

Attention now turns to another entry.
Which result was noted for this molecule in the test: `COc1ccc(C(=O)/C=C/c2ccc(O)c(OC)c2)cc1`
active
